# measurementNotes: Cyromazine residue in eggs (Example 15)
# Parameters: species or system Lohman laying hens
# testParameters: female, Lohman, chicken, in vivo
experimentalEndpoint: concentration at 4 weeks (ng/g)
Give your result in ng/g as a bare value.

**Query** So what does the record say about concentration at 4 weeks for Nc1nc(N)nc(NC2CC2)n1 ?
**Result** 88
